Could you please report measured GI50 for the items listed next?
tested on: UO-31; assay: NCI tumour cell line growth inhibition, 48 h
Activity calls are given as the source filed them. Cut-off read from the data, not from the text of the source: active = GI50 up to about 1.1 µM and inactive = higher.

Please look at this compound and report its GI50: CN(C)CCn1cnc2ncccc2c1=O
> 100 µM (inactive)

Please look at this compound and report its GI50: O=C1NC(=O)C2C1C1C=C3c4ccccc4N(c4ccccc4)C32[C@H]2C(=O)NC(=O)[C@@H]12 (stereo not given in full)
> 100 µM (inactive)

Please look at this compound and report its GI50: O=[N+]([O-])C(/C=C(\Cl)[N+](=O)[O-])=C1Nc2ccccc2N1
42.6 µM (inactive)

Please look at this compound and report its GI50: COc1ccc(C2CC(c3sc(Nc4ccc(C)cc4)nc3C)=NN2)cc1 (stereo not given)
14.2 µM (inactive)

Please look at this compound and report its GI50: CCCCCCCCCC1(N=[N+]=[N-])C(=O)c2ccccc2N(C)C1=O (stereo not given)
19.4 µM (inactive)

Please look at this compound and report its GI50: COc1cc(C[C@H]2c3cc(OC)c(OC)cc3CCN2C)c(Oc2cc3c(cc2OC)-c2c(OC)c(OC)cc4c2[C@H](C3)N(C)CC4)cc1OC [THALICARPINE]
4.66 µM (inactive)

Please look at this compound and report its GI50: O=CNNC(=O)Nc1ccc(Cl)cc1
68.7 µM (inactive)

Please look at this compound and report its GI50: O=C(COc1ccc(Cl)c(Cl)c1)Nc1ccc[n+](Cc2ccc(S(=O)(=O)F)c(Cl)c2)c1
> 100 µM (inactive)

Please look at this compound and report its GI50: Cc1cc2nnn(C3CCCCO3)c2cc1C (stereo not given)
98.2 µM (inactive)

Please look at this compound and report its GI50: O=C(Nc1ccc(Cl)cc1)/C(Cc1cccc[n+]1[O-])=N\Nc1ccc([N+](=O)[O-])cc1[N+](=O)[O-]
> 100 µM (inactive)

###

Could you please report measured GI50 for the items listed next?
system: Hs-578T; assay: NCI tumour cell line growth inhibition, 48 h
The source made the active and inactive calls. No stated cut-off is given here; in the data, active = GI50 up to about 1.1 µM and inactive = higher.

Would you please give the reported GI50 of CCOC(=O)c1cc2c([N+](=O)[O-])c(NC(C)=O)ccc2s1 with Hs-578T?
37.8 µM (inactive)

Would you please give the reported GI50 of CCOC(=O)CNc1c(OCc2ccccc2)c(=O)c1=O with Hs-578T?
> 100 µM (inactive)

Would you please give the reported GI50 of CCOC(=O)c1c(Sc2ccc([N+](=O)[O-])cc2[N+](=O)[O-])nc2c3ccccc3ccn12 with Hs-578T?
13.8 µM (inactive)

Would you please give the reported GI50 of C[C@H]1[C@H](C)CC[C@]2(C(=O)OC3OC(CO)C(O)C(O)C3O)CC[C@]3(C)C(=CC[C@@H]4[C@@]5(C)C[C@@H](O)[C@@H]6OC(=O)c7cc(O)c(O)c(O)c7-c7c(cc(O)c(O)c7O)C(=O)OC[C@@]6(CO)[C@@H]5CC[C@]43C)[C@H]12 (stereo not given in full) with Hs-578T?
> 100 µM (inactive)

Would you please give the reported GI50 of C=CC1(O)CCCC=C1COCc1ccccc1 (stereo not given) with Hs-578T?
> 100 µM (inactive)

Would you please give the reported GI50 of Cc1nc2cn3c(c2c(=O)[nH]1)CCCCC3 with Hs-578T?
> 100 µM (inactive)

Would you please give the reported GI50 of O=C(/C=C/c1ccccc1)c1cc(C(=O)/C=C/c2ccccc2)c(O)cc1O with Hs-578T?
26.4 µM (inactive)

Would you please give the reported GI50 of C=C1C(=O)OC2/C=C(/C)C(OC(C)=O)C/C=C(\C)C(OC(=O)C3(C)OC3C)C(O)C12 (stereo not given) with Hs-578T?
> 100 µM (inactive)

Would you please give the reported GI50 of CC(OC(C)(C)C)[C@H](NC(=O)OC(C)(C)C)C(=O)O (stereo not given in full) with Hs-578T?
> 100 µM (inactive)

Would you please give the reported GI50 of COc1ccc2c(c1)OC1c3ccccc3OCC21 (stereo not given) with Hs-578T?
> 100 µM (inactive)

Would you please give the reported GI50 of COc1cccc(/C=N/[N+](C)(C)C)c1O with Hs-578T?
> 10 µM (inactive)

Would you please give the reported GI50 of O=C(/C=C/c1c[nH]c2ccccc12)c1ccccc1O with Hs-578T?
22.6 µM (inactive)

Would you please give the reported GI50 of CC(Oc1ccccc1Cl)C(=O)NN1C(=O)CSC1c1ccc(Cl)cc1 (stereo not given) with Hs-578T?
20.4 µM (inactive)

Would you please give the reported GI50 of CN1CCc2c(sc3ncn(Nc4ccc(Cl)cc4)c(=N)c23)C1 with Hs-578T?
> 100 µM (inactive)

Would you please give the reported GI50 of O=C(COc1ccc(Cl)c(Cl)c1)Nc1ccc[n+](Cc2ccc(S(=O)(=O)F)c(Cl)c2)c1 with Hs-578T?
> 100 µM (inactive)

Would you please give the reported GI50 of O=C(Cn1c2ccc(Br)cc2c2nc3ccccc3nc21)Nc1ccccc1 with Hs-578T?
26.7 µM (inactive)

Would you please give the reported GI50 of O=C(O)CCCc1ccc2ccccc2c1 with Hs-578T?
> 100 µM (inactive)

Would you please give the reported GI50 of COC(=O)C1=C(C=O)C2C=CC1C2 (stereo not given) with Hs-578T?
> 100 µM (inactive)

Would you please give the reported GI50 of O=C(CC(O)(C(F)(F)F)C(F)(F)F)c1cc(CC(=O)C(O)(C(F)(F)F)C(F)(F)F)cc(CC(=O)C(O)(C(F)(F)F)C(F)(F)F)c1 with Hs-578T?
2.05 µM (inactive)

Would you please give the reported GI50 of c1ccc2sc(C3(N4CCCCC4)CCCCCC3)cc2c1 with Hs-578T?
18.9 µM (inactive)
